tested on: PBMC; assay: Human PBMC IL-2 assay; format: cell-based; conditions: anti-CD3/CD28 stimulation overnight, IL-2 level
Reported values of EC50 for individual entries
The response must be a number in nM with no trailing unit.

See these solved cases before continuing.
{"columns": ["molecule", "valueKind", "dataValue"],
 "data": [
  ["CC[C@@H]1CN2c3c(c(=O)n(C)c4ccc(C#N)nc34)OC[C@@H]2CN1c1nc2cc(C)ccc2o1", "EC50", 375],
  ["CC[C@@H]1CN2c3c(c(=O)n(C)c4ccc(C#N)nc34)OC[C@@H]2CN1[C@@H](CC)c1ccc(C(C)(F)F)cc1", "EC50", 7]
]}

As a next step, examine the molecule that follows.
Answer with reported EC50 of CC[C@H](c1ccc(F)c(Cl)c1)N1C[C@H]2COc3c(c4nc(C#N)ccc4n(C)c3=O)N2C[C@H]1C (stereo in doubt)
1330

* * *

Reported values of CLint scaled at 1 μM for individual entries
assay: Human microsomal clearance assay; format: in vitro ADME; conditions: human, liver microsomes, pH 7.4
The response must be a number in mL/min/kg with no trailing unit.

{"columns": ["compound", "dataValue"],
 "data": [
  ["CC[C@@H]1CN2c3c(c(=O)n(C)c4ccc(C#N)nc34)OC[C@@H]2CN1[C@@H](CC)c1ccc(C(F)(F)F)c(Cl)c1 (stereo in doubt) [Compound 246]", 1.1],
  ["CC[C@@H](c1ccc(Cl)c(Cl)c1)N1C[C@H]2COc3c(c4nc(C#N)ccc4n(C)c3=O)N2C[C@H]1C (stereo in doubt) [Compound 322]", 12.4],
  ["C[C@@H]1CN2c3c(c(=O)n(C)c4ccc(C#N)nc34)OC[C@@H]2CN1[C@@H](C)c1ccc(C(F)(F)F)cc1 (stereo in doubt) [Compound 223]", 18.3],
  ["CC[C@@H]1CN2c3c(c(=O)n(C)c4ccc(C#N)nc34)OC[C@@H]2CN1[C@@H](CC)c1ccc(C(F)(F)F)cc1 [Compound 67]", 7.5],
  ["[2H]C([2H])([2H])n1c(=O)c2c(c3nc(C#N)ccc31)N1C[C@@H](CC)N([C@@H](CC)c3ccc(C(F)(F)F)cc3)C[C@H]1CO2 (stereo in doubt) [Compound 251]", 8.6]
]}

Answer with reported CLint scaled at 1 μM of CC[C@H]1CN([C@@H](CC)c2ccc(S(F)(F)(F)(F)F)cc2)[C@H](CC)CN1c1nc(=O)n(C)c2ccc(C#N)nc12 [Compound 28]
7.7

* * *

DGKz (Homo sapiens (Human), UniProt Q13574): recorded pIC50 for assorted molecules
Sequence (Q13574 whole entry): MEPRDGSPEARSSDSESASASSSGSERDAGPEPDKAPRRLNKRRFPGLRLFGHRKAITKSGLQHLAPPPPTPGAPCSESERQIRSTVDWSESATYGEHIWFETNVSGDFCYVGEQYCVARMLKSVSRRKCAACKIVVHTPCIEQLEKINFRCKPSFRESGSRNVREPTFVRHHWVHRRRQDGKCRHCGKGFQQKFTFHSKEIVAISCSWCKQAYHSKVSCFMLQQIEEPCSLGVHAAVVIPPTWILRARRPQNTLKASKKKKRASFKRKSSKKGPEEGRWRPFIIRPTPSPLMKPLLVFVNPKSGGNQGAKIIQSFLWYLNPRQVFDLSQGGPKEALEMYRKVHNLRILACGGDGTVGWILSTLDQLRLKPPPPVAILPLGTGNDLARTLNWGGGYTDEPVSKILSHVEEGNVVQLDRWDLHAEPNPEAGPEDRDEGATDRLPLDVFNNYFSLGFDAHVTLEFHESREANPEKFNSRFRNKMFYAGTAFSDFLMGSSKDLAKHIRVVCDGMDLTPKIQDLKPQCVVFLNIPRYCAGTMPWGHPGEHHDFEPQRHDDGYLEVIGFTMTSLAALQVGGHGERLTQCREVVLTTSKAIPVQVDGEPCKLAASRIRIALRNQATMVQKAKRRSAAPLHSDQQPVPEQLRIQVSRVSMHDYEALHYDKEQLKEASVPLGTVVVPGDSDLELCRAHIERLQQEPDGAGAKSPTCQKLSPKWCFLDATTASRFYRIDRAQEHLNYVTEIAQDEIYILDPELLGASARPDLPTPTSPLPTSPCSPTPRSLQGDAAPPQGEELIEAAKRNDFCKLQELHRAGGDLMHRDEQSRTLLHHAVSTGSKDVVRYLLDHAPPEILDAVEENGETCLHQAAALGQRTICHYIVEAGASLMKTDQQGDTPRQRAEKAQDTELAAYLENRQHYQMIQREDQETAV
Note: pIC50 values are expressed as the negative base-10 logarithm of concentration in M.

See these solved cases before continuing.
{"columns": ["molecule", "pIC50"],
 "data": [
  ["CC[C@H]1CN([C@H](CC)c2ccc(SC(F)(F)F)cc2)[C@H](CC)CN1c1nc2nncn2c2ccc(C#N)nc12 (stereo in doubt)", 6.46],
  ["CC[C@H]1CN([C@H](C)c2ccc(S(F)(F)(F)(F)F)cc2)[C@H](CC)CN1c1nc(=O)n(C)c2ccc(C#N)nc12 (stereo in doubt)", 6.19],
  ["CC[C@H]1CN([C@@H](CC)c2ccc(C(F)(F)F)cc2)[C@H](CC)CN1c1nc2nccn2c2ccc(C#N)nc12", 7.15],
  ["CC[C@H]1CN([C@H](CC)c2ccc(S(F)(F)(F)(F)F)cc2)[C@H](CC)CN1c1nc(=O)n(C)c2ccc(C#N)nc12", 7.26]
]}

Answer with reported pIC50 of `CC[C@@H]1C[C@H](c2nc3cc(C)ccc3o2)CCN1c1nc(=O)n(C)c2cc(O[C@@H]3CCOC3)c(Cl)cc12`
8.22

Answer with reported pIC50 of `CC[C@H]1CN([C@H](CC)c2nc(C3CC3)no2)[C@H](CC)CN1c1nc2nncn2c2ccc(C#N)nc12`
6.45

* * *

test system: PBMC; assay: Human PBMC IL-2 assay; type: cell-based; details: anti-CD3/CD28 stimulation overnight, IL-2 level
valueKind: EC50
Answer as a quantity: numeral, then unit.

{"columns": ["compound", "targetOrSystem", "EC50"],
 "data": [
  ["CC[C@H]1CN([C@@H](CC)c2ccc(C(F)(F)F)cc2)[C@H](CC)CN1c1nc2nncn2c2ccc(C#N)nc12", "PBMC", "0.044 µM"]
]}

Answer with reported EC50 of CC[C@@H]1CN2c3c(c(=O)n(C)c4ccc(C#N)nc34)OC[C@@H]2CN1[C@@H](CC)c1ccc(F)cc1F (stereo in doubt)
0.025 µM

Answer with reported EC50 of CC[C@H]1CN([C@@H](C)c2ccc(C(F)(F)F)cc2)[C@H](C)CN1c1nc2nncn2c2ccc(C#N)nc12 (stereo in doubt)
0.742 µM

Answer with reported EC50 of CC[C@@H]1CN2c3c(c(=O)n(C)c4ccc(C#N)nc34)OC[C@@H]2CN1[C@H](CC)c1ccc(Cl)c(F)c1 (stereo in doubt)
0.068 µM

Answer with reported EC50 of `CC[C@@H]1CN2c3c(c(=O)n(C)c4ccc(C#N)nc34)OC[C@@H]2CN1[C@@H](COC)c1ccc(C(F)(F)F)cc1`
0.036 µM

Answer with reported EC50 of `CC[C@H]1CN2[C@@H](COC[C@@H]2c2ccc(C(F)(F)F)cc2)CN1c1nc2nncn2c2ccc(C#N)nc12`
3.05 µM

Answer with reported EC50 of CC[C@@H]1CN2c3c(c(=O)n(C)c4ccc(C#N)nc34)OC[C@@H]2CN1[C@H](CC)c1ccc(C)c(F)c1 (stereo in doubt)
0.153 µM

Answer with reported EC50 of Cn1c(=O)nc(N2CCC[C@@]3(CC2)CC(c2ccc(OC(F)(F)F)cc2)=NO3)c2nc(C#N)ccc21 (stereo in doubt)
0.259 µM

Answer with reported EC50 of CCC[C@@H](c1ccc(Cl)cc1)N1C[C@H]2COc3c(c4nc(C#N)ccc4n(C)c3=O)N2C[C@H]1CC (stereo in doubt)
0.001 µM

* * *

Reported values of EC50 for individual entries
test system: PBMC; test: Human PBMC IL-2 assay; format: cell-based; conditions: anti-CD3/CD28 stimulation overnight, IL-2 level
The response must be a number in nM with no trailing unit.

See these solved cases before continuing.
{"columns": ["molecule", "targetOrSystem", "EC50 [nM]"],
 "data": [
  ["CC[C@@H]1CN2c3c(c(=O)n(C)c4ccc(C#N)nc34)OC[C@@H]2CN1[C@@H](CC)c1ccc(Cl)c(C)c1 (stereo in doubt)", "PBMC", 13],
  ["CC[C@@H]1CN2c3c(c(=O)n(C)c4ccc(C#N)nc34)OC[C@@H]2CN1[C@@H](CC)c1ccc(C)cc1 (stereo in doubt)", "PBMC", 10],
  ["CC[C@@H]1CN2c3c(c(=O)n(C)c4ccc(C#N)nc34)N(C)C(=O)[C@@H]2CN1[C@H](CC)c1ccc(C(F)(F)F)cc1", "PBMC", 1580],
  ["Cc1ccc2oc(C3(C)CCN(c4c(C#N)c(=O)n(C)c5ccc(C#N)nc45)CC3)nc2c1", "PBMC", 372],
  ["CC[C@@H]1CN2c3c(c(=O)n(CC)c4ccc(C#N)nc34)OC[C@@H]2CN1[C@@H](CC)c1ccc(C(F)(F)F)cc1 (stereo in doubt)", "PBMC", 227]
]}

Answer with reported EC50 of CC[C@@H](c1ccc(C(F)(F)F)cc1F)N1C[C@H]2COc3c(c4nc(C#N)ccc4n(C)c3=O)N2C[C@H]1C (stereo in doubt)
30

Answer with reported EC50 of `Cn1c(=O)nc(N2CCC(Oc3ccc(OC(F)(F)F)cc3)CC2)c2nc(C#N)ccc21`
728

Answer with reported EC50 of CC[C@H](c1ccc(Cl)c(Cl)c1)N1C[C@H]2COc3c(c4nc(C#N)ccc4n(C)c3=O)N2C[C@H]1C (stereo in doubt)
540

Answer with reported EC50 of CC[C@H](c1ccc(C(F)(F)F)c(F)c1)N1C[C@H]2COc3c(c4nc(C#N)ccc4n(C)c3=O)N2C[C@H]1C (stereo in doubt)
302

Answer with reported EC50 of CC[C@@H]1CN2c3c(c(=O)n(C)c4ccc(C#N)nc34)OC[C@@H]2CN1[C@@H](c1ccc(F)cc1)c1nc(C2CC2)no1 (stereo in doubt)
41

Answer with reported EC50 of `CC[C@@H]1CN2c3c(c(=O)n(C)c4ccc(C#N)nc34)OC[C@@H]2CN1Cc1ccc(C(F)(F)F)cc1`
152

Answer with reported EC50 of CC[C@@H]1CN2c3c(c(=O)n(C)c4ccc(C#N)nc34)OC[C@@H]2CN1[C@H](CC)c1c(Cl)cccc1Cl (stereo in doubt)
3420

Answer with reported EC50 of CC[C@@H]1CN2c3c(c(=O)n(C)c4ccc(C#N)nc34)OC[C@@H]2CN1[C@@H](CC)c1ccc(C(F)(F)F)cc1C (stereo in doubt)
361

Answer with reported EC50 of `CC[C@@H]1CN2c3c(c(=O)n(C)c4ccc(C#N)nc34)OC[C@@H]2CN1Cc1ccc(Cl)c(Cl)c1`
111

Ref: patent US20250223301A1
